System: K4 kissing-loop RNA reporter;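 note: bound reporter read as fluorescence of individual clusters on recovered sequencing chips by microscopy, with normalized cluster intensities fitted with a binding model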
Assay: apparent KD of K4 kissing-loop reporter; higher = weaker reporter binding
Conditions: Eterna round: R107; input ligand: tryptophan 2.4 mM
PARAMETER: apparent KD of K4 kissing-loop reporter (nM)
Express it in nM; write the number only.

Noted for UAAUGCAUGACGGCCGCCACUAGUACUGGAGUGAUGUUGUGGUACGGCGGCAGUUUAGGGUGGACUAGGACCGGGUCAUGCAUAU [KL-XTryp-B10 #analogue] : its apparent KD of K4 kissing-loop reporter reads 356

Noted for UGUACCGAGUUAGGAUAUGUCGUCGAAAGACGAAAUGGAGUGAUGUUCCUUAAACUGCGAAAGCAGACAGAAGGGACUUGGUACU [FmnBS 29 U11] : its apparent KD of K4 kissing-loop reporter reads 429

Noted for AAUAAAAUCACGGCCGCCACUGAAUAAUUGGUAAGUAGUGAUGUUACUUUACUUUUCUUAUUUAACAGGACCGGGUGAAUAUUUA [JR_ExcTryptoB_Sub009] : its apparent KD of K4 kissing-loop reporter reads 123
